- MEASUREMENT_PROTOCOL: Lactate dehydrogenase (LDH) release assay
- Assay type: cell-based
- DETAILS: 0% FBS 4Hr; read-out: LDH: Cytotoxicity assay EC50
- Protocol: HCT116 cells were stably transfected with a p53 responsive β-lactamase reporter and expanded in McCoy’s 5 A Medium with 10% fetal bovine serum (FBS), Blasticidin, and Penicillin/Streptomycin and then transferred to 1.5 ml freezing vials and stored under liquid nitrogen in growth media containing 5% DMSO. […] Lactate dehydrogenase release was detected using the CytoTox-ONE Homogenous Membrane Integrity Assay Kit (Promega), as per the manufacturer’s instructions. […]
Positions of bridges follow the written chain, without caps; N, C: chain ends. Non-standard residues stand in square brackets, D forms with d. Residues, ends and D or L forms follow the SMILES beside them. R8 = C=CCCCCCC[C@@](C)(N)C(=O)O; Cba = N[C@@H](CC1CCC1)C(=O)O; S5 = C=CCCC[C@](C)(N)C(=O)O
MEASURE_NAME: EC50

Lookup: // query EC50 value for entry CC(=O)N[C@@H](CC(C)C)C(=O)N[C@H](C(=O)N[C@@H](Cc1ccccc1)C(=O)N[C@]1(C)CCCCCCC=CCCC[C@@](C)(C(=O)N[C@@H](Cc2c[nH]cn2)C(=O)N[C@@H](C)C(=O)N[C@@H](C)C(N)=O)NC(=O)[C@H](CC2CCC2)NC(=O)[C@H](CC(C)C)NC(=O)[C@H](CCC(N)=O)NC(=O)[C@H](Cc2c[nH]c3ccccc23)NC(=O)[C@H](Cc2ccc(O)cc2)NC(=O)[C@H](CCC(=O)O)NC1=O)[C@@H](C)O [MP-201, ATSP-7041 (S12H)] (Ac-LTF[R8]EYWQL[Cba][S5]HAA-NH2; staple 4-11)
Found: > 50 µM

###

- MEASUREMENT_PROTOCOL: in vitro
- DETAILS: Nanoclick permeability assay EC50
Positions of bridges follow the written chain, without caps; N, C: chain ends. Non-standard residues stand in square brackets, D forms with d. Residues, ends and D or L forms follow the SMILES beside them. Lys(N3) = [N-]=[N+]=NCCCC[C@H](N)C(=O)O; R8 = C=CCCCCCC[C@@](C)(N)C(=O)O; Cba = N[C@@H](CC1CCC1)C(=O)O; S5 = C=CCCC[C@](C)(N)C(=O)O; βAla = NCCC(=O)O
Give measured cell entry EC50 for each item. Keep answers brief.
Give the value; after it, write the unit.

Lookup: // query cell entry EC50 value for entry CC(=O)N[C@@H](CCCCN=[N+]=[N-])C(=O)NCCC(=O)N[C@@H](CC(C)C)C(=O)N[C@H](C(=O)N[C@@H](Cc1ccccc1)C(=O)N[C@]1(C)CCCCCCC=CCCC[C@@](C)(C(=O)NC(C)(C)C(=O)N[C@@H](C)C(=O)N[C@@H](C)C(N)=O)NC(=O)[C@H](CC2CCC2)NC(=O)[C@H](CCC(N)=O)NC(=O)[C@H](C)NC(=O)[C@H](Cc2c[nH]c3ccccc23)NC(=O)[C@H](Cc2ccc(O)cc2)NC(=O)[C@H](CCC(=O)O)NC1=O)[C@@H](C)O [MP-172]
Found: 0.123 µM

Lookup: Next record, please: CC(=O)N[C@@H](CCCCN=[N+]=[N-])C(=O)N[C@@H](CCCCN)C(=O)N[C@@H](CCCCN)C(=O)N[C@@H](CC(C)C)C(=O)N[C@H](C(=O)N[C@@H](Cc1ccccc1)C(=O)N[C@]1(C)CCCCCCC=CCCC[C@@](C)(C(=O)N[C@@H](CO)C(=O)N[C@@H](C)C(=O)N[C@@H](C)C(N)=O)NC(=O)[C@H](CC2CCC2)NC(=O)[C@H](CCC(N)=O)NC(=O)[C@H](C)NC(=O)[C@H](Cc2c[nH]c3ccccc23)NC(=O)[C@H](Cc2ccc(O)cc2)NC(=O)[C@H](CCC(=O)O)NC1=O)[C@@H](C)O [MP-026]
Found: 1.03 µM

Lookup: Next record, please: CC(=O)N[C@@H](CCCCN=[N+]=[N-])C(=O)NCCC(=O)N[C@H](C(=O)N[C@H](C(=O)N[C@@H](Cc1ccccc1)C(=O)N[C@]1(C)CCCCCCC=CCCC[C@@](C)(C(=O)N[C@@H](CO)C(=O)N[C@@H](C)C(=O)N[C@@H](C)C(N)=O)NC(=O)[C@H](CC2CCC2)NC(=O)[C@H](CCC(N)=O)NC(=O)[C@H](C(C)C)NC(=O)[C@H](Cc2c[nH]c3ccccc23)NC(=O)[C@H](Cc2ccc(O)cc2)NC(=O)[C@H](C(C)C)NC1=O)[C@@H](C)O)C(C)C [MP-490] (Ac-[Lys(N3)][βAla]VTF[R8]VYWVQ[Cba][S5]SAA-NH2; staple 6-13)
Found: 1.37 µM

Lookup: Next record, please: CC(=O)N[C@@H](CCCCN=[N+]=[N-])C(=O)NCCC(=O)N[C@@H](CC(C)C)C(=O)N[C@H](C(=O)N[C@@H](Cc1ccccc1)C(=O)N[C@]1(C)CCCCCCC=CCCC[C@@](C)(C(=O)N[C@@H](CO)C(=O)N[C@@H](C)C(=O)N[C@@H](C)C(N)=O)NC(=O)[C@H](CC2CCC2)NC(=O)[C@H](C)NC(=O)[C@H](CCC(N)=O)NC(=O)[C@H](Cc2c[nH]c3ccccc23)NC(=O)[C@H](Cc2ccc(O)cc2)NC(=O)[C@H](CCC(=O)O)NC1=O)[C@@H](C)O [MP-4203] (Ac-[Lys(N3)][βAla]LTF[R8]EYWQA[Cba][S5]SAA-NH2; staple 6-13)
Found: 1.2 µM
